Cited source: patent US11078214B2

test system: D4 CHO cells (FRβ); assay: Growth inhibition of CHO subline D4 expressing FRβ; type: cell-based, Chinese hamster; details: Cricetulus griseus, CHO, read-out: FRβ (nM) D4 IC50
Quantity Name: IC50 (nM)

> print(dat)
                   structure.smiles  reported.measurement
1  COc1ccc(N(C)c2nc(C)nc3ccsc23)cc1                  2.36

----------
tested on: D4 CHO cells (FRβ); assay: Growth inhibition of CHO subline D4 expressing FRβ; assay type: cell-based, Chinese hamster; details: Cricetulus griseus, CHO; Section VI Table 1; read-out: FRβ (nM) D4 IC50
Quantity Name: IC50 (nM)

> print(dat)
                      structure.smiles  measure.unit  value.relation.sign  reported.measurement
1        CSc1ccc(Nc2nc(C)nc3ccsc23)cc1            nM                    >                  1000
2  COc1ccc(N(C)c2nc(C)nc3cc[nH]c23)cc1            nM                    =                   0.2

----------
test system: PC43-10 CHO cells (human RFC); assay: Growth inhibition of CHO subline PC43-10 expressing human RFC; assay type: cell-based, Chinese hamster; details: Section IV Table 1; spread in parentheses; read-out: RFC PC43-10 IC50
Quantity Name: IC50 (nM)

> print(dat)
                                   molecule  measure.unit  reported.measurement
1  Nc1nc2[nH]c(CCCc3ccc(C(=O)N[C@@H](CCC(=O)O)C(=O)O)cc3)cc2c(=O)[nH]1 [AGF17, reference compound]            nM                   648

----------
tested on: KB human tumor cells (RFC/FRα/PCFT); experiment: Growth inhibition of KB human tumor cells; format: cell-based; settings: Homo sapiens, read-out: KB (nM) RFC/FRα/PCFT IC50
Quantity Name: IC50 (nM)

> print(dat)
                   structure.smiles  quantity.name  reported.measurement
1  COc1ccc(N(C)c2nc(C)nc3ccsc23)cc1           IC50                  0.34

----------
tested on: KB human tumor cells (RFC/FRα/PCFT); assay: Growth inhibition of KB human tumor cells; assay type: cell-based; conditions: Section IV Table 1; read-out: RFC/FRα/PCFT KB IC50
pIC50: −log10 of the molar value.
Quantity Name: pIC50

> print(dat)
                                   compound                    system.under.test  quantity.name  reported.measurement
1  Nc1nc2[nH]c(CCCc3ccc(C(=O)N[C@@H](CCC(=O)O)C(=O)O)cc3)cc2c(=O)[nH]1 [AGF17, reference compound]  KB human tumor cells (RFC/FRα/PCFT)          pIC50                  8.74

----------
tested on: R2/PCFT4 CHO cells (PCFT); test: Growth inhibition of CHO subline R2/PCFT4 expressing human PCFT; format: cell-based, Chinese hamster; settings: Cricetulus griseus, R2/PCFT4, read-out: PCFT4 (nM) PCFT IC50
Quantity Name: IC50 (nM)

> print(dat)
                   structure.smiles  reported.measurement
1  COc1ccc(N(C)c2nc(C)nc3ccsc23)cc1                  57.6
